biological target: recombinant His-tagged TET1 protein (Homo sapiens); test: Microscale thermophoresis binding to His-tagged TET1; settings: MST, HEPES pH 7.5, 50 nM TET1
Sequence (Q8NFU7 whole entry): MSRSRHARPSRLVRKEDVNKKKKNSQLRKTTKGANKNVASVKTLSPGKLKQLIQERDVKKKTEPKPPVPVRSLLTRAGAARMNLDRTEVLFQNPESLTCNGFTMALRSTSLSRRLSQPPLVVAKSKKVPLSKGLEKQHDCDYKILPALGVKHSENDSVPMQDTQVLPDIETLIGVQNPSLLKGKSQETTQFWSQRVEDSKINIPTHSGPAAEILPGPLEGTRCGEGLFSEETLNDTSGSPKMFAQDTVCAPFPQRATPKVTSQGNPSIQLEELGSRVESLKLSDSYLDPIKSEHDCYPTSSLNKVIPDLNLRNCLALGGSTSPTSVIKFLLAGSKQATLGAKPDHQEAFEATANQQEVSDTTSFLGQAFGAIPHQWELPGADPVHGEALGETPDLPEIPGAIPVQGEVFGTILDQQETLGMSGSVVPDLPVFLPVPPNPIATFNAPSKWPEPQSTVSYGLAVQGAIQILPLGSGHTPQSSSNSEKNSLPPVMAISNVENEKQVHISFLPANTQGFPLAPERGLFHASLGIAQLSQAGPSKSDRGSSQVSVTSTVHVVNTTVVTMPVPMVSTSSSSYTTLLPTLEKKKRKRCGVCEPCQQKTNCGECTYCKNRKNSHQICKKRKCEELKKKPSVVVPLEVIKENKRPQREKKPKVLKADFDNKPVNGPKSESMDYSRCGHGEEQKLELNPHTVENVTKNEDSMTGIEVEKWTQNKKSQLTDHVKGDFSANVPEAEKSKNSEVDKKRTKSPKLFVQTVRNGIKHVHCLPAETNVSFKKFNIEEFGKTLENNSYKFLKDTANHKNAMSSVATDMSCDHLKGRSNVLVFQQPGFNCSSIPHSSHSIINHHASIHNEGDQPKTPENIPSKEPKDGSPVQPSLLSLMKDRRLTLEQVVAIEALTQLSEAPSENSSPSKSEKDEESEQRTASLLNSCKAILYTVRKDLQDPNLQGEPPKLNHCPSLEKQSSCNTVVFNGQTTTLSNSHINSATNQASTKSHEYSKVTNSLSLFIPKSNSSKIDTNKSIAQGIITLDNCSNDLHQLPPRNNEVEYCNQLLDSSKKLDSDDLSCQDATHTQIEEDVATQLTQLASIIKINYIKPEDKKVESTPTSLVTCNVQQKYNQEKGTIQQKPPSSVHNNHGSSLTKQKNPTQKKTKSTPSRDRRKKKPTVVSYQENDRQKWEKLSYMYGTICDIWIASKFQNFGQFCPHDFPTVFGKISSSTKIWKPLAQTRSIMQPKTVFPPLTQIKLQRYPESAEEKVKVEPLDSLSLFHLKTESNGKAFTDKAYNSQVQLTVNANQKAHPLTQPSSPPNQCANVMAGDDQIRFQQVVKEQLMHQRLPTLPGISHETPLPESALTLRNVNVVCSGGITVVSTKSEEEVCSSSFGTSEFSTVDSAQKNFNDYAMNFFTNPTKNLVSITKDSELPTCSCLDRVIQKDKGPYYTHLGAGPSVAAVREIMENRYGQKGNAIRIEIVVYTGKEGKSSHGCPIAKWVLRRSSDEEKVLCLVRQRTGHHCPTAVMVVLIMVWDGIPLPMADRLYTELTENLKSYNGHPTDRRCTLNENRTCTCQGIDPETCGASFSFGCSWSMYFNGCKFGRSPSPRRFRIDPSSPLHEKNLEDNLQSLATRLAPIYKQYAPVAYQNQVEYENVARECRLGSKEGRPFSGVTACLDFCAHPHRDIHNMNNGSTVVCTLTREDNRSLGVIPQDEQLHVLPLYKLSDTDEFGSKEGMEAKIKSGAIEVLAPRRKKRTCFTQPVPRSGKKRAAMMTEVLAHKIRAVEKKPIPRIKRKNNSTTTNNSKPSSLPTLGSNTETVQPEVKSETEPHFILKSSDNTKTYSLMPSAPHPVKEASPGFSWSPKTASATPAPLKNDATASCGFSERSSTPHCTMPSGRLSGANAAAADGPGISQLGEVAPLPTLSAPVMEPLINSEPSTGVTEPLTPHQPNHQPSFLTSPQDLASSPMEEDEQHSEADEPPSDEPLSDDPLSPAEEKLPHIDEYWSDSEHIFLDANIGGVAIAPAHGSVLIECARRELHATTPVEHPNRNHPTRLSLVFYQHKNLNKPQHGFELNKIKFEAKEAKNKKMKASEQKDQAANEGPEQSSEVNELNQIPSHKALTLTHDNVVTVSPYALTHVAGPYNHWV
endpoint: pKd
// scale note: pKd = -log10(conc_M); give the bare number

IN: Form field: pKd recorded for `Cc1ccc(-n2c(-c3ccc(C(=O)NN)cc3)cc3c2cc(-c2ccc(C(=O)NN)cc2)n3-c2ccc(C)cc2)cc1` with recombinant His-tagged TET1 protein (Homo sapiens) (enter value)
OUT: 4.57

---

// viability at 20 µM lookup, one value per entry
tested on: U-118 MG cells; assay: MTT cytotoxicity assay, U-118 MG; format: cell-based, human; conditions: Homo sapiens, U-118-MG, 48 h, U-118 MG, 20 uM, repeats, read-out: Cell viability %
Value expressed in %; do not type the unit.

// known answers, use as guide
CCN(CC)c1ccc(/C=N/NC(=O)c2ccc(-c3cc4c(cc(-c5ccc(C(=O)N/N=C/c6ccc(N(CC)CC)cc6O)cc5)n4-c4ccc(C)cc4)n3-c3ccc(C)cc3)cc2)c(O)c1: 39.1
Cc1ccc(-n2c(-c3ccc(C(=O)N/N=C/c4ccccc4O)cc3)cc3c2cc(-c2ccc(C(=O)N/N=C/c4ccccc4O)cc2)n3-c2ccc(C)cc2)cc1: 22.5

IN: Return reported viability at 20 µM; argument: `Cc1ccc(-n2c(-c3ccc(C(=O)N/N=C/c4cc(F)ccc4O)cc3)cc3c2cc(-c2ccc(C(=O)N/N=C/c4cc(F)ccc4O)cc2)n3-c2ccc(C)cc2)cc1`
OUT: 35.1

Where do the numbers come from? From paper PMC9505425.
